Source: ChEMBL document CHEMBL1201862

System: HOP-62
protocol: NCI tumour cell line growth inhibition, 48 h
The source made the active and inactive calls. Cut-off read from the data, not from the text of the source: active = GI50 up to about 1.1 µM and inactive = higher.
Result category, one only: active, inactive

Example entries and their recorded answers appear below.
> print(dat)
                                   molecule  study.target  classification
1  COc1ccc(C(=O)C(C(=O)C(=O)Nc2ccc(Cl)c(Cl)c2)c2ccc(OC)cc2)cc1 (stereo unspecified)        HOP-62        inactive
2  c1ccc(COC[C@H]2C3OCC([C@H](OCc4ccccc4)[C@H]3OCc3ccccc3)N2Cc2ccccc2)cc1 (stereo partly specified)        HOP-62        inactive
3  COC(=O)N/N=C(\C)CC(=O)Nc1cccc([N+](=O)[O-])c1        HOP-62        inactive
4         O=C(O)c1c[nH]c2c(ccc3ncccc32)c1=O        HOP-62        inactive
5  CC(=O)O[C@H]1CC[C@@]2(C)[C@H](CC[C@@H]3[C@@H]2CC[C@]2(C)[C@@H](c4ccc(=O)oc4)C[C@H]4O[C@]342)C1        HOP-62          active

Moving on to the next molecule.
Just curious, what result did `CCOC(=O)c1cn(-c2ccc([N+](=O)[O-])cc2)c(=S)n2c1nc1ccccc12` get here? inactive

###

Quick list: GI50 per entry.
Test system: U-251
protocol: NCI tumour cell line growth inhibition, 48 h
The source made the active and inactive calls. Cut-off read from the data, not from the text of the source: active = GI50 up to about 1.1 µM and inactive = higher.

molecule	assay result
COC(=O)[C@H]1C2CC[C@@H]3C45C[C@@H](c6ccoc6)O[C@@H]4O[C@@H](O2)C31CCC5C (some centres not stated)	> 100 µM (inactive)

Quote GI50 reported for O=C(CNc1c(Cl)cccc1Cl)NC1C=Cc2ccc(S(=O)(=O)Nc3c(Cl)cccc3Cl)cc2C1=O (configuration not stated) please. > 100 µM (inactive)

Quote GI50 reported for `COC(=O)c1ccc(NCc2cc(OC)ccc2OC)cc1` please. 74.3 µM (inactive)

Quote GI50 reported for `O=C1/C(=C/c2cccs2)NC(=S)N1CN1CCOCC1` please. > 100 µM (inactive)

Quote GI50 reported for COC1C2C=CC(C2)[C@H]1[N+](=O)[O-] (some centres not stated) please. > 100 µM (inactive)

Quote GI50 reported for Fc1ccc(C(OCCN2CC3CC2CN3CCCc2ccccc2)c2ccc(F)cc2)cc1 (configuration not stated) please. 6.71 µM (inactive)

Quote GI50 reported for `CN(/N=C/c1ccnc2ccccc12)c1c([N+](=O)[O-])cc([N+](=O)[O-])cc1[N+](=O)[O-]` please. 88.3 µM (inactive)

Quote GI50 reported for `CP(C)C.[Ag][I]` please. > 100 µM (inactive)

###

Test system: CAKI-1
protocol: NCI tumour cell line growth inhibition, 48 h
Active and inactive are the calls of the source. Rule as the data show it: active = GI50 up to about 1.1 µM and inactive = higher.
Result category, one only: true for active, false for inactive

Example entries and their recorded answers appear below.
> print(dat)
                                   compound  classification
1  O=C(OCCN=c1c2ccccc2ccc2ccccc12)c1ccc([N+](=O)[O-])cc1           false
2  COC1=CC(=O)C(C2CC(=O)c3c(O)cc(O)cc3O2)=CC1=O (centres undefined)           false
3  COc1cc2c(cc1OC)C(=O)C1(C2)[C@H](c2ccccc2)C2C(=O)c3cc(OC)c(OC)cc3C2[C@H]1c1ccccc1 (some centres undefined)            true
4           CCOC(=O)C1=C(O)C(=O)c2ccsc2C1=O           false
5  COc1ccc(-c2c(-c3ccccc3)c(C)c3ccccn23)cc1           false

Just curious, what result did CN(C)CC1CCCC/C1=N/O (centres undefined) get here? false

Just curious, what result did `CCCC(=O)Nc1cc2c3c(c1)CCCN3CCC2` get here? false

Just curious, what result did COc1cc([C@@H]2OC(=O)C3C2C(=O)O[C@H]3c2ccc(O)c(OC)c2)ccc1O (some centres undefined) get here? false

Just curious, what result did `O=C(NCCCCCCCN1CCCCCCC1)C(C1CCCCC1)C1CCCCC1` get here? false

Just curious, what result did CC(=O)OCC1OC(n2c(C)c(/N=N/c3ccc(C)cc3)c(C)c(C#N)c2=S)C(OC(C)=O)C(OC(C)=O)C1OC(C)=O (centres undefined) get here? false

Just curious, what result did `Oc1ccc(-c2nc(-c3cccnc3)c(-c3ccc(F)cc3)[nH]2)cc1` get here? false
